# Target of assay: mouse melanocortin-5 receptor (mouse, UniProt P41149 1-325)
# Sequence (P41149 whole entry): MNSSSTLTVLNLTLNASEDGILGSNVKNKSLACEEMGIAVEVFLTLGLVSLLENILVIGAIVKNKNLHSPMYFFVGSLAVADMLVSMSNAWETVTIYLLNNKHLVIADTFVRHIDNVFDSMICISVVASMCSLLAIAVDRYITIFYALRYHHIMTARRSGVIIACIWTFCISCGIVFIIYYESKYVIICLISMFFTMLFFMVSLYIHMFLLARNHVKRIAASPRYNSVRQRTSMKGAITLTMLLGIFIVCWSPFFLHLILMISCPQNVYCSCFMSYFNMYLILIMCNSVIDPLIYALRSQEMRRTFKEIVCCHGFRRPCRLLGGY
# Test method notes: cell-based or functional assay
Bridges are numbered along the chain shown (N, C = ends). Where no end group is shown, it is not given here. [ ]: non-standard residue; d: D form. Dap = NC[C@H](N)C(=O)O
Reported values of EC50 (agonist) for individual entries
Readout type: EC50 (agonist) (nM)

Binder | Value
YDHXRXNAFXY (Asp-Dpr side chain lactam bridge; Dpr; DPhe; Nal(2′); C-terminal amide (amide resin)) [SEQ ID NO:39 (Tyr-c[Asp-His-DPhe-Arg-Nal(2′)-Asn-Ala-Phe-Dpr]-Tyr)] | 1.93
YDPXRWNAFXY (Asp-Dpr side chain lactam bridge; Dpr; DPhe; C-terminal amide (amide resin)) [SEQ ID NO:28 (Tyr-c[Asp-Pro-DPhe-Arg-Trp-Asn-Ala-Phe-Dpr]-Tyr)] | 7.16
YDHXPWNAFXY (Asp-Dpr side chain lactam bridge; Dpr; DPhe; C-terminal amide (amide resin)) [SEQ ID NO:36 (Tyr-c[Asp-His-DPhe-Pro-Trp-Asn-Ala-Phe-Dpr]-Tyr)] | 3200
YDHRFFNAF[Dap]Y-NH2 (lactam 2-10; N-terminus assumed; SMILES C[C@@H]1NC(=O)[C@H](CC(N)=O)NC(=O)[C@H](Cc2ccccc2)NC(=O)[C@H](Cc2ccccc2)NC(=O)[C@H](CCCNC(=N)N)NC(=O)[C@H](Cc2c[nH]cn2)NC(=O)[C@@H](NC(=O)[C@@H](N)Cc2ccc(O)cc2)CC(=O)NC[C@@H](C(=O)N[C@@H](Cc2ccc(O)cc2)C(N)=O)NC(=O)[C@H](Cc2ccccc2)NC1=O) [SEQ ID NO:8 (Tyr-c[Asp-His-Arg-Phe-Phe-Asn-Ala-Phe-Dpr]-Tyr)] | 100000
YDHXRXNAFXY (Asp-Dpr side chain lactam bridge; Dpr; DPhe; Bip; C-terminal amide (amide resin)) [SEQ ID NO:41 (Tyr-c[Asp-His-DPhe-Arg-Bip-Asn-Ala-Phe-Dpr]-Tyr)] | 3.43
